Data credit: paper PMC6222633

Assay: Pharmacokinetics of scoparone, geniposide and rhein in rat plasma after oral administration of the herbal formula Yin-Chen-Hao-Tang (UPLC-MS/MS)
Format: in vivo, Male Sprague Dawley rats
Conditions: male, Sprague Dawley, in vivo, po; rat plasma, YCHT 1 g/kg p.o., mean ± S.D., n = 6; read-out: Tmax (converted)
PROPERTY: Tmax (h)
Give the quantity in h, number only.

Assign Tmax to the following record: COC(=O)C1=CO[C@@H](O[C@@H]2O[C@H](CO)[C@@H](O)[C@H](O)[C@H]2O)[C@@H]2C(CO)=CC[C@H]12 [Geniposide, geniposide]
1.35

----------
Reported values of Tmax for individual entries
Assay: Pharmacokinetics of scoparone, geniposide and rhein in rat plasma after oral administration of the herbal formula Yin-Chen-Hao-Tang (UPLC-MS/MS)
Format: in vivo, Male Sprague Dawley rats
Conditions: male, Sprague Dawley, rat, in vivo, po, 1 g/kg
Protocol: All samples were subjected to chromatographic separation using the Shimadzu UPLC system with an Acquity UPLC BEH C18 column (1.7 µm, 100 mm × 2.1 mm) (Waters Corp., Milford, MA, USA). […] MRM transitions were scoparone (m/z 207 → 151), geniposide (m/z 406 → 227), rhein (m/z 283 → 240) and carbamazepine (m/z 237 → 194) for quantitation. […] The pharmacokinetic parameters were calculated using the pharmacokinetic software WinNonlin Standard Edition, version 1.1 (Scientific Consulting Inc., Apex, NC, USA). […]
Give the quantity in min, number only.

COc1cc2ccc(=O)oc2cc1OC ... 14

// switching to the query compound
Assign Tmax to the following record: `O=C(O)c1cc(O)c2c(c1)C(=O)c1cccc(O)c1C2=O`
12

----------
Assay: Pharmacokinetics of scoparone, geniposide and rhein in rat plasma after oral administration of the herbal formula Yin-Chen-Hao-Tang (UPLC-MS/MS)
Format: in vivo, Male Sprague Dawley rats
Settings: male, Sprague Dawley, rat, in vivo, po, 3 g/kg
PROPERTY: MRT (h)
Give the quantity in h, number only.

O=C(O)c1cc(O)c2c(c1)C(=O)c1cccc(O)c1C2=O ... 1.93

// switching to the query compound
Assign MRT to the following record: `COc1cc2ccc(=O)oc2cc1OC`
0.85

----------
Reported values of MRT for individual entries
Experiment: Pharmacokinetics of scoparone, geniposide and rhein in rat plasma after oral administration of the herbal formula Yin-Chen-Hao-Tang (UPLC-MS/MS)
Format: in vivo, Male Sprague Dawley rats
Conditions: male, Sprague Dawley, rat, in vivo, po, 1 g/kg
Entry format: amount then unit.

COc1cc2ccc(=O)oc2cc1OC ... 0.317 h

// switching to the query compound
Assign MRT to the following record: `O=C(O)c1cc(O)c2c(c1)C(=O)c1cccc(O)c1C2=O`
1.77 h

----------
Test: Pharmacokinetics of scoparone, geniposide and rhein in rat plasma after oral administration of the herbal formula Yin-Chen-Hao-Tang (UPLC-MS/MS)
Assay type: in vivo, Male Sprague Dawley rats
Conditions: male, Sprague Dawley, in vivo, po; rat plasma, YCHT 3 g/kg p.o., mean ± S.D., n = 6; read-out: MRT (mean retention time) (converted)
PROPERTY: MRT (h)
Give the quantity in h, number only.

Assign MRT to the following record: COC(=O)C1=CO[C@@H](O[C@@H]2O[C@H](CO)[C@@H](O)[C@H](O)[C@H]2O)[C@@H]2C(CO)=CC[C@H]12 [Geniposide, geniposide]
2.53

----------
Experiment: Pharmacokinetics of scoparone, geniposide and rhein in rat plasma after oral administration of the herbal formula Yin-Chen-Hao-Tang (UPLC-MS/MS)
Type: in vivo, Male Sprague Dawley rats
Details: male, Sprague Dawley, in vivo, po; rat plasma, YCHT 1 g/kg p.o., mean ± S.D., n = 6; read-out: t1/2 (elimination half-life)
PROPERTY: half-life (min)
Give the quantity in min, number only.

Assign half-life to the following record: COC(=O)C1=CO[C@@H](O[C@@H]2O[C@H](CO)[C@@H](O)[C@H](O)[C@H]2O)[C@@H]2C(CO)=CC[C@H]12 [Geniposide, geniposide]
80

----------
Test: Pharmacokinetics of scoparone, geniposide and rhein in rat plasma after oral administration of the herbal formula Yin-Chen-Hao-Tang (UPLC-MS/MS)
Format: in vivo, Male Sprague Dawley rats
Conditions: male, Sprague Dawley, in vivo, po; rat plasma, YCHT 1 g/kg p.o., mean ± S.D., n = 6; read-out: AUC (converted)
PROPERTY: AUC (ng·h/mL)
Give the quantity in ng·h/mL, number only.

Assign AUC to the following record: COC(=O)C1=CO[C@@H](O[C@@H]2O[C@H](CO)[C@@H](O)[C@H](O)[C@H]2O)[C@@H]2C(CO)=CC[C@H]12 [Geniposide, geniposide]
313

----------
Assay: Pharmacokinetics of scoparone, geniposide and rhein in rat plasma after oral administration of the herbal formula Yin-Chen-Hao-Tang (UPLC-MS/MS)
Type: in vivo, Male Sprague Dawley rats
Settings: male, Sprague Dawley, rat, in vivo, po, 3 g/kg
PROPERTY: Cmax (ng/mL)
Give the quantity in ng/mL, number only.

O=C(O)c1cc(O)c2c(c1)C(=O)c1cccc(O)c1C2=O [Rhein, rhein] ... 1660

// switching to the query compound
Assign Cmax to the following record: COc1cc2ccc(=O)oc2cc1OC [Scoparone, 6,7-dimethoxycoumarin]
132
